MEASURED ON: NK-1 receptor (Homo sapiens, UniProt P25103)
Construct: endogenous in cells
Sequence (P25103 whole entry): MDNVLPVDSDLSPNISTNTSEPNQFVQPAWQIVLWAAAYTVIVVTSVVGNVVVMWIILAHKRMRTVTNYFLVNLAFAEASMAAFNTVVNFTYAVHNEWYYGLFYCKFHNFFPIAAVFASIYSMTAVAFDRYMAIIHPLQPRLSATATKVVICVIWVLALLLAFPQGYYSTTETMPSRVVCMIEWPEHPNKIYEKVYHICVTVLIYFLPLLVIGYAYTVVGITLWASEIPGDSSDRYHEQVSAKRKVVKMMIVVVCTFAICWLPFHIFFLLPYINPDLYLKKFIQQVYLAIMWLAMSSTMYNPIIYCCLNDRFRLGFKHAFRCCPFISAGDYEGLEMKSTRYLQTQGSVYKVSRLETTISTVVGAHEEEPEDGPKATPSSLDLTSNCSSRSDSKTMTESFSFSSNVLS
EXPERIMENTAL DETAILS: NK-1 Receptor Binding Assay (125I-labeled substance P, IM9 cells)
RECORDED CONDITIONS: inhibits fifty percent of binding of 125I-substance P to IM9 cells
VALUE TYPE: IC50 (nM)

Use these answered entries as a reference point.
Qu. // lookup IC50 | system=NK-1 receptor (Homo sapiens, UniProt P25103) | key= CC(=O)N(Cc1ccccc1Cl)CC(Cc1c[nH]c2ccccc12)NC(=O)CN1CCC(N2CCCCC2)CC1 (centres unmarked) [Example 49]
Ans. 135

Qu. Follow-up item: COc1ccccc1CN(CC(Cc1ccc2ccccc2c1)NC(=O)CN1CCN(c2ccccc2)CC1)C(C)=O (centres unmarked)
Ans. 8.6

Qu. Follow-up item: CC(=O)N(Cc1ccccc1)CC(Cc1c[nH]c2ccccc12)NC(=O)CN1CCC(N2CCCCC2)CC1 (centres unmarked)
Ans. 2.2

Qu. Follow-up item: COc1ccc(CN(CC(Cc2c[nH]c3ccccc23)NC(=O)CN2CCN(c3ccccc3)CC2)C(C)=O)cc1 (centres unmarked)
Ans. 2.1

Qu. Follow-up item: COc1ccccc1CN(CC(Cc1c[nH]c2cc(C)ccc12)NC(=O)CN1CCN(c2ccccc2)CC1)C(C)=O (centres unmarked)
Ans. 29.2

(P) COc1ccccc1CN(CC(Cc1c[nH]c2ccccc12)NC(=O)CN1CCN(c2ccccc2)CC1)S(C)(=O)=O (centres unmarked)
(Q) COC(=O)CC(=O)N(Cc1ccccc1OC)CC(Cc1c[nH]c2ccccc12)NC(=O)CN1CCN(c2ccccc2)CC1 (centres unmarked)
Qu. Just curious, which one has the larger IC50 reading, P or Q ? Respond using the label that marks the chosen record.
Ans. P
(P: 4.2 nM, Q: 1 nM)

(A) COc1ccccc1CN(CC(Cc1c[nH]c2ccccc12)NC(=O)CN1CCN(C(C)C)CC1)C(C)=O (centres unmarked)
(B) COc1ccccc1CN(CC(Cc1c[nH]c2ccccc12)NC(=O)CN1CCCCC1)C(C)=O (centres unmarked)
(C) CC(=O)N(CC(Cc1c[nH]c2ccccc12)NC(=O)CN1CCC(N2CCCCC2)CC1)C(C)c1ccccc1 (centres unmarked) [Example 104]
(D) CC(=O)N(Cc1ccccc1C)CC(Cc1c[nH]c2ccccc12)NC(=O)CN1CCN(c2ccccc2)CC1 (centres unmarked)
(E) COc1ccccc1CN(CC(Cc1c[nH]c2ccccc12)NC(=O)CNCCNc1ccccc1)C(C)=O (centres unmarked)
Qu. # ascending order, key=IC50 Answer with the labels in sequence, matching the requested order.
Ans. C, A, D, E, B
